Entries and their TGI
Test system: CCRF-CEM leukemia
Test: NCI tumour cell line growth inhibition, 48 h
experimental-endpoint: TGI

compound | assay-result
COC(=O)C(/C(=N\NC(N)=S)C(=O)Nc1ccccc1[N+](=O)[O-])c1cnc2ccccc2n1 (stereo not drawn) | > 100 µM
Cc1cccc2c1c(=O)c1c(O)cc(O)cc1n2C | > 100 µM
CC1(C)C2CCC(O)(C2)C1N (stereo not drawn) | > 100 µM
COc1ccc(CCc2cc(OC)c(O)c(OC)c2)cc1 | > 100 µM
COc1ccc(N(C)c2nc(Cl)nc3cnn(C)c23)cc1 | > 100 µM
Cn1c2ccccc2c2c(=O)n(CCCC(=O)OC(=NC3CCCCC3)NC3CCCCC3)c3c(-c4ccccc4)nnn3c21 | > 100 µM
C1CN2CCNCCN(CCN1)CC2 | > 100 µM
O=[N+]([O-])c1cc2c([N+](=O)[O-])cccc2o1 | 5.05 µM
CC1(C)OC(=O)C(Cc2ccccc2)(Cc2ccccc2)C(=O)O1 | > 100 µM
O=c1oc2ccc3ccccc3c2cc1-c1nc2ccc([N+](=O)[O-])cc2o1 | > 100 µM
CNC(=O)NS(=O)(=O)c1ccc(C)cc1 | > 100 µM
CN(C)c1ccc(N=C2C=CC(=O)c3ccccc32)cc1 | 6.17 µM
N#Cc1ccc(C2NN=CC23C(=O)c2ccccc2OC3c2ccccc2)cc1 (stereo not drawn) | > 100 µM

###

Test system: OVCAR-4 ovarian
Experiment: NCI tumour cell line growth inhibition, 48 h

compound | TGI
CC(=O)Nc1ccc(Sc2nnc(NC(C)=O)s2)cc1 | > 100 µM
O=C1c2ccccc2C(=O)c2c(NCCCN3CCOCC3)ccc(NCCCN3CCOCC3)c21 | > 100 µM
N#CC1C(=O)NC(c2ccccc2[N+](=O)[O-])c2sc3c(F)cccc3c21 (centres undefined) | 44.7 µM
CCN(Cc1ccc(F)cc1)c1ccc(CO)c(OC)c1 | 20.6 µM

###

Test system: CCRF-CEM leukemia
Assay: NCI tumour cell line growth inhibition, 48 h

compound | TGI
O=C1c2ccccc2C(=O)N1CC(CN1C(=O)c2ccccc2C1=O)(C(=O)OCc1ccccc1)C(=O)OCc1ccccc1 | > 100 µM
C[CH2][Sn]([CH2]C)([O]C(=O)c1ccc(OC)c(OC)c1OC)[O]C(=O)c1ccc(OC)c(OC)c1OC | 56.8 µM
CCOC(=O)c1cc(C2CCN(Cc3ccccc3)C2=S)c(C(=O)C=[N+]=[N-])[nH]1 (stereo not given) | > 100 µM
COC1=CC(=O)c2nc(Cl)ccc2C1=O | > 100 µM
CC[C@@]1(CCC(=O)NCCc2c[nH]c3ccccc23)CCC(=O)N2CCc3c([nH]c4ccccc34)[C@H]21 | > 100 µM
CN1CCN(Cc2ccc(NC(=O)c3cncc(C#Cc4cnc(N)c5cnccc45)c3)cc2C(F)(F)F)CC1 | 8.71 µM
C=CCc1c(O)c(C(=O)/C=C/c2ccccc2)c(OC)c2ccoc12 | > 100 µM
N#Cc1c(N2CCN(c3ccc([N+](=O)[O-])cc3)CC2)[n+](=O)c2ccccc2n1[O-] | > 100 µM
COC(=O)C(=O)C(C(=O)C(=O)Nc1cc(C)ccc1C)c1nc2ccc(C(=O)c3ccccc3)cc2[nH]c1=O (stereo not given) | > 100 µM
C#Cc1cccc(NC(=O)c2ccc(NC(=O)CCl)cc2)c1 | 32.4 µM
